Data origin, for the record: ChEMBL document CHEMBL3797183

# Tested on: Human alphaherpesvirus 2
# METHOD_SUMMARY: Antiviral activity against HSV2 186 infected in African green monkey Vero cells treated for 10 mins measured after 1 to 2 days by crystal violet staining-based assay
# Type: functional, cell-based
# EXPERIMENTAL_PARAMETERS: Human alphaherpesvirus 2, strain 186, Vero
ASSAY_ENDPOINT: IC50 (nM)
Quick note: give the figure in nM, leave out the unit.

CHEMICAL_SMILES: O=c1[nH]c(=O)n([C@@H]2O[C@H](CO)[C@@H](O)[C@@H]2O)cc1C#Cc1ccc2c3cccc4cccc(c5cccc1c52)c43
SYSTEM_NAME: Human alphaherpesvirus 2
IC50 (nM): 2

// switching to the query molecule
INPUT: Any idea what its IC50 is? The molecule is "O=c1[nH]c(=O)n([C@H]2C[C@H](O)[C@@H](CO)O2)cc1C#Cc1ccc2c3cccc4cccc(c5cccc1c52)c43"
OUTPUT: 2

###

# METHOD_SUMMARY: Cytotoxicity against PEK cells after 7 days
# Format: cell-based, Sus scrofa
# EXPERIMENTAL_PARAMETERS: pig
ASSAY_ENDPOINT: CC50 at 168 h

Worked cases, CC50 at 168 h given:
CHEMICAL_SMILES: O=c1[nH]c(=O)n([C@H]2C[C@H](O)[C@@H](CO)O2)cc1C#Cc1ccc2c3cccc4cccc(c5cccc1c52)c43
ASSAY_ENDPOINT: CC50 at 168 h
OBS_VALUE: > 50 µM
//
CHEMICAL_SMILES: O=c1[nH]c(=O)n([C@H]2C[C@H](O)[C@@H](CO)O2)cc1C#Cc1ccc2ccc3cccc4ccc1c2c34
ASSAY_ENDPOINT: CC50 at 168 h
OBS_VALUE: > 50 µM
//
CHEMICAL_SMILES: O=c1[nH]c(=O)n([C@@H]2O[C@H](CO)[C@@H](O)[C@@H]2O)cc1C#Cc1ccc2c3cccc4cccc(c5cccc1c52)c43
ASSAY_ENDPOINT: CC50 at 168 h
OBS_VALUE: 4.4 µM

INPUT: Which CC50 at 168 h is reported for this molecule? "O=c1[nH]c(=O)n([C@H]2C[C@H](O)[C@@H](CO)O2)cc1C#CCOCc1ccc2c3cccc4cccc(c5cccc1c52)c43"
OUTPUT: > 50 µM
